- Test system: MDA-MB-231 multicell spheroids, viability (%T/C)
- procedure text: Anticancer human tumor MDA-MB-231 cell line growth inhibition [IpAb];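 note: viability read after seven days of drug exposure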
- recorded conditions: second compound 0.316 µM; first compound 0.03 µM; stronger effect = lower value
Could you mark each record True if its viability, T/C falls strictly under 40%, and False if it equals or exceeds it?

>>> group_label("CC(C)(C)c1cnc(CSc2cnc(NC(=O)C3CCNCC3)s2)o1 + CCN1CCN(Cc2ccc(Nc3ncc(F)c(-c4cc(F)c5nc(C)n(C(C)C)c5c4)n3)nc2)CC1")
"False"
>>> group_label("Cn1cnc2c(F)c(Nc3ccc(Br)cc3Cl)c(C(=O)NOCCO)cc21 + CCN1CCN(Cc2ccc(Nc3ncc(F)c(-c4cc(F)c5nc(C)n(C(C)C)c5c4)n3)nc2)CC1")
"True"

For this molecule, is viability, T/C lower than 40%? CC(=O)c1c(C)c2cnc(Nc3ccc(N4CCNCC4)cn3)nc2n(C2CCCC2)c1=O + CC(C)NCC(C(=O)N1CCN(c2ncnc3c2C(C)CC3O)CC1)c1ccc(Cl)cc1
False

Similarly, CC(C)(C)c1cnc(CSc2cnc(NC(=O)C3CCNCC3)s2)o1 + CC(C)NCC(C(=O)N1CCN(c2ncnc3c2C(C)CC3O)CC1)c1ccc(Cl)cc1 ?
False

Thanks! And Cn1cnc2c(F)c(Nc3ccc(Br)cc3Cl)c(C(=O)NOCCO)cc21 + CC(C)NCC(C(=O)N1CCN(c2ncnc3c2C(C)CC3O)CC1)c1ccc(Cl)cc1 ?
True

Consider next the molecule CC(=O)c1c(C)c2cnc(Nc3ccc(N4CCNCC4)cn3)nc2n(C2CCCC2)c1=O + CCN1CCN(Cc2ccc(Nc3ncc(F)c(-c4cc(F)c5nc(C)n(C(C)C)c5c4)n3)nc2)CC1 in the same way.
False
